- EXPERIMENT: Measurement of particle size, polydispersity index and zeta potential of lipid nanoparticle (Zetasizer)
- Type: physicochemical
- COND: lipid nanoparticle containing siRNA; main lipid/DPPC/cholesterol=45/10/45; Z-average in ultrapure water
MEASURED_PARAMETER: Particle size (nm)
Write the answer as a number in nm, unit excluded.

Ask: Using the record for CCCCCCCC/C=C\CCCCCCCCC(CCCCCCC/C=C\CCCCCCCC)OC(=O)C(CCC(=O)O)NC(=O)C(N)CCCNC(=N)N (stereo not drawn) , report its Particle size (nm).
Reply: 119.7

Ask: Quick one: CCCCCCCC/C=C\CCCCCCCCC(CCCCCCC/C=C\CCCCCCCC)OC(=O)[C@@H](N)CCCCN (stereo partly drawn) [Comparative Example 4, reference compound]
Reply: 147.5

Ask: # repeat for CCCCCCCC/C=C\CCCCCCCCC(CCCCCCC/C=C\CCCCCCCC)OC(=O)C(CO)NC(=O)C(N)CCCNC(=N)N (stereo not drawn)
Reply: 103.6

Ask: What do you have for CCCCC/C=C\C/C=C\CCCCCCCCC(CCCCCCC/C=C\C/C=C\CCCCC)OC(=O)C(NC(=O)C(N)CCCNC(=N)N)C(C)O (stereo not drawn) ?
Reply: 103.6

Ask: Cool, now CCCCCC/C=C\CCCCCCCCC(CCCCCCC/C=C\CCCCCC)OC(=O)C(N)CCCCN (stereo not drawn) [Comparative Example 6, reference compound]
Reply: 212.1

Ask: What do we get for CCCCCCCC/C=C\CCCCCCCCC(CCCCCCC/C=C\CCCCCCCC)OC(=O)C(CC(=O)O)NC(=O)C(N)CCCNC(=N)N (stereo not drawn) ?
Reply: 116.5

====

- Test system: NIH3T3 cells
- EXPERIMENT: Evaluation of protein expression effect (luciferase luminescence), Cell experiment 2
- Assay type: cell-based
- COND: lipid nanoparticle containing mRNA, 100 ng mRNA/20 μL per well, 24 hours, amount of luminescence as index
Please go through the items and note down their Protein expression level.

Ask: // Protein expression level lookup, key: CCCCCCCC/C=C\CCCCCCCCC(CCCCCCC/C=C\CCCCCCCC)OC(=O)C(CC(=O)O)NC(=O)C(N)CCCNC(=N)N (stereo not shown)
Reply: 5,000

Ask: What do you get for CCCCCCCC/C=C\CCCCCCCCC(CCCCCCC/C=C\CCCCCCCC)OC(=O)C(NC(=O)C(N)CCCNC(=N)N)C(C)O (stereo not shown) ?
Reply: 60,000

Ask: Next compound up: CCCCCCCC/C=C\CCCCCCCCC(CCCCCCC/C=C\CCCCCCCC)OC(=O)C(CCC(=O)O)NC(=O)C(N)CCCNC(=N)N (stereo not shown)
Reply: 25,000

Ask: Moving on to CCCCCCCCCCCOC(=O)CCCCCN(CCO)CCCCCCCC(=O)OC(CCCCCCCC)CCCCCCCC [Reference Example 1, reference compound]
Reply: 7,000

====

- EXPERIMENT: Measurement of particle size, polydispersity index and zeta potential of lipid nanoparticle (Zetasizer)
- Format: physicochemical
- COND: lipid nanoparticle containing siRNA; main lipid/DPPC/cholesterol=45/10/45; Z-average in ultrapure water
MEASURED_PARAMETER: Particle size (nm)
API: value field is a number in nm; no unit string.

Ask: Report Particle size (nm) for CCCCCCCC/C=C\CCCCCCCCC(CCCCCCC/C=C\CCCCCCCC)OC(=O)[C@H](CCSC)NC(=O)[C@@H](N)CCCNC(=N)N (some centres unmarked) please.
Reply: 125.9

Ask: Now give it for CCCCCCCC/C=C\CCCCCCCCC(CCCCCCC/C=C\CCCCCCCC)OC(=O)C(CCC(=O)O)NC(=N)N (centres unmarked) [Comparative Example 3, reference compound] too.
Reply: 137.0

Ask: What about CCCCCCCC/C=C\CCCCCCCCC(CCCCCCC/C=C\CCCCCCCC)OC(=O)C(CCC(=O)O)NC(=O)C(N)Cc1c[nH]cn1 (centres unmarked) ?
Reply: 107.6

Ask: What would you report for CCCCCCCC/C=C\CCCCCCCCCCCCC(CCCCCCCCCCC/C=C\CCCCCCCC)OC(=O)[C@@H](N)CCCCN (some centres unmarked) [Comparative Example 7, reference compound] ?
Reply: 149.8

Ask: Now give it for CC/C=C\CCC(CCCCCCC/C=C\CCCCCC)OC(=O)[C@@H](N)CCCCN (some centres unmarked) [Comparative Example 8, (3Z,15Z)-docosa-3,15-dien-7-yl lysinate, reference compound] too.
Reply: 233.1

Ask: Entry CC/C=C\CCC(CCCCCCCCCCC/C=C\CCCCCCCC)OC(=O)[C@@H](N)CCCCN (some centres unmarked) [Comparative Example 9, reference compound] please
Reply: 759.4

Ask: What do we get for CCCCCCCC/C=C\CCCCCCCCC(CCCCCCC/C=C\CCCCCCCC)OC(=O)C(CC(=O)O)NC(=N)N (centres unmarked) [Comparative Example 2, reference compound] ?
Reply: 117.1

Ask: Moving on to CCCCCCCC/C=C\CCCCCCCCC(CCCCCCC/C=C\CCCCCCCC)OC(=O)C(NC(=O)C(N)CCCNC(=N)N)C(C)O (centres unmarked)
Reply: 109.2

Ask: Same question, CCCCCCCC/C=C\CCCCCCCCC(CCCCCCC/C=C\CCCCCCCC)OC(=O)C(CC(=O)O)NC(=O)C(N)CCCCN (centres unmarked) this time
Reply: 94.2

Ask: What about CCCCCCCC/C=C\CCCCCCCCC(CCCCCCC/C=C\CCCCCCCC)OC(=O)C(CCC(=O)O)NC(=O)C(N)CCCCN (centres unmarked) ?
Reply: 162.5

Ask: // next record CCCCC/C=C\CCCC(CC/C=C\CCCCC)OC(=O)C(N)CCCCN (centres unmarked) [Comparative Example 5, (6Z,14Z)-icosa-6,14-dien-10-yl lysinate, reference compound]
Reply: 324.5

====

- Tested on: HT1080-EGFP (human/fibrosarcoma) cells
- EXPERIMENT: Evaluation of knockdown effect (GFP assay), Cell experiment 1
- Type: cell-based
- COND: lipid nanoparticle containing siRNA against EGFP; fluorescence intensity with control cells without lipid nanoparticle set at 100
MEASURED_PARAMETER: GFP Assay
The answer should be written as a number, with no unit following it.

Ask: Checklist item: GFP Assay tested on HT1080-EGFP (human/fibrosarcoma) cells, entry CCCCCCCC/C=C\CCCCCCCCC(CCCCCCC/C=C\CCCCCCCC)OC(=O)C(CCC(=O)O)NC(=O)C(N)Cc1c[nH]cn1 (stereo not shown) [Example 9] , value?
Reply: 56

Ask: Thanks! And CCCCCCCC/C=C\CCCCCCCCC(CCCCCCC/C=C\CCCCCCCC)OC(=O)C(CO)NC(=O)C(N)CCCNC(=N)N (stereo not shown) [Example 4] ?
Reply: 7

Ask: Follow-up item: CCCCCCCC/C=C\CCCCCCCCC(CCCCCCC/C=C\CCCCCCCC)OC(=O)C(CCC(=O)O)NC(=O)C(N)CCCCN (stereo not shown) [Example 8]
Reply: 47

Ask: Next up: CCCCCCCC/C=C\CCCCCCCCC(CCCCCCC/C=C\CCCCCCCC)OC(=O)C(CCC(=O)O)NC(=N)N (stereo not shown) [Comparative Example 3, reference compound]
Reply: 102

Ask: Also need CCCCC/C=C\C/C=C\CCCCCCCCC(CCCCCCC/C=C\C/C=C\CCCCC)OC(=O)C(NC(=O)C(N)CCCNC(=N)N)C(C)O (stereo not shown) [Example 10] , thanks.
Reply: 11

Ask: Now this one: CCCCCCCC/C=C\CCCCCCCCC(CCCCCCC/C=C\CCCCCCCC)OC(=O)C(Cc1c[nH]cn1)NC(=O)C(N)CCCNC(=N)N (stereo not shown) [Example 3]
Reply: 22

Ask: Can you handle CCCCCCCC/C=C\CCCCCCCCC(CCCCCCC/C=C\CCCCCCCC)OC(=O)[C@H](CCSC)NC(=O)[C@@H](N)CCCNC(=N)N (stereo partly shown) [Example 6] next?
Reply: 40

Ask: Input CCCCCCCC/C=C\CCCCCCCCC(CCCCCCC/C=C\CCCCCCCC)OC(=O)C(CCC(=O)O)NC(=O)C(N)CCCNC(=N)N (stereo not shown) [Example 2]
Reply: 24

Ask: Ok, now CCCCCCCC/C=C\CCCCCCCCC(CCCCCCC/C=C\CCCCCCCC)OC(=O)C(CC(=O)O)NC(=O)C(N)CCCNC(=N)N (stereo not shown) [Example 1]
Reply: 28

Ask: What about CCCCCCCC/C=C\CCCCCCCCC(CCCCCCC/C=C\CCCCCCCC)OC(=O)C(NC(=O)C(N)CCCNC(=N)N)C(C)O (stereo not shown) [Example 5] ?
Reply: 22

Ask: Input CCCCCCCC/C=C\CCCCCCCCC(CCCCCCC/C=C\CCCCCCCC)OC(=O)[C@@H](N)CCCCN (stereo partly shown) [Comparative Example 4, reference compound]
Reply: 86

Ask: // same read-out, input: CCCCCCCC/C=C\CCCCCCCCC(CCCCCCC/C=C\CCCCCCCC)OC(=O)C(CC(=O)O)NC(=O)C(N)CCCCN (stereo not shown) [Example 7]
Reply: 28

Ask: Follow-up item: CCCCCCCC/C=C\CCCCCCCCC(CCCCCCC/C=C\CCCCCCCC)OC(=O)C(CC(=O)O)NC(=N)N (stereo not shown) [Comparative Example 2, reference compound]
Reply: 97

Where do the numbers come from? From patent US20240148664A1.
